Give measured pIC50 for each item. Keep answers brief.
- Study system: USP25 (USP25-His6, Boston Biochem E-546) (Homo sapiens, UniProt Q9UHP3)
- Construct: His6; purchased Boston Biochem E-546
- Sequence (Q9UHP3 whole entry): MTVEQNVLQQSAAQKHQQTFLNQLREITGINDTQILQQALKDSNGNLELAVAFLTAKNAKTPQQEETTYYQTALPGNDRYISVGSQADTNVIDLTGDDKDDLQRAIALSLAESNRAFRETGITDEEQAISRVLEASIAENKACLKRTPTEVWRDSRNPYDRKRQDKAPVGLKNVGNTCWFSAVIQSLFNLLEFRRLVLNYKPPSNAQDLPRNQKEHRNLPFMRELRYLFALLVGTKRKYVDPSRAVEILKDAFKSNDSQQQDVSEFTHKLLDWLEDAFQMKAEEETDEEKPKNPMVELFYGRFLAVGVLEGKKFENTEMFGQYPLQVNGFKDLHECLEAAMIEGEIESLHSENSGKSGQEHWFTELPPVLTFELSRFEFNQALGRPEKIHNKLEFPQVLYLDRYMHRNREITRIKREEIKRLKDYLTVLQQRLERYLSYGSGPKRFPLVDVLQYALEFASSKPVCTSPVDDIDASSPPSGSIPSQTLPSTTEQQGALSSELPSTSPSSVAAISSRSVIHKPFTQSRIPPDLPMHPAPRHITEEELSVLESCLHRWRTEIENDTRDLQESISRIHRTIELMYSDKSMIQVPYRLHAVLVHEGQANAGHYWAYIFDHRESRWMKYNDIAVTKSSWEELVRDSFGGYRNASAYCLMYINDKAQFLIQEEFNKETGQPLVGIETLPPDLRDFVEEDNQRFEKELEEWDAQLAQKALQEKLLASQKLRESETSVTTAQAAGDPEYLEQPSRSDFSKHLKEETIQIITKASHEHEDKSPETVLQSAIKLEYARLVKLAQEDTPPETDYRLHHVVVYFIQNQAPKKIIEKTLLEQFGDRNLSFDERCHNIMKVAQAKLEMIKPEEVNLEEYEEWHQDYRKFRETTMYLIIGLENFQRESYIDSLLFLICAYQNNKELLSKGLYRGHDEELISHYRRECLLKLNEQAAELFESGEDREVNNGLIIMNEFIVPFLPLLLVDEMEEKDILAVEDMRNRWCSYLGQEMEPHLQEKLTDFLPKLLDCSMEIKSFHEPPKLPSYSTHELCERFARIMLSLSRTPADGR
- Assay notes: Ubiquitin-Rhodamine 110 Assay for USP25 Activity, Example A-2
- Type: biochemical
- Test settings: Ubiquitin-Rhodamine 110 assay, Example A-2; read-out: USP25 A-2 IC50 range
pIC50: −log10 of the molar value.

> print(dat)
                                   molecule                              study.system  readout.name       reading
1  Cc1ccc2c(N)c(C(=O)N[C@H]3COc4cc(O[C@H]5COC6(CNC6)C5)ccc4C3)sc2n1 (single isomer, unassigned)  USP25 (USP25-His6, Boston Biochem E-546) (Homo sapiens, UniProt Q9UHP3)         pIC50  6.70 to 7.30
2  Cc1cnc2c(N)c(C(=O)N[C@H]3COc4cc(N5CC6CCC(C5)N6)c(F)c(F)c4C3)sc2n1  USP25 (USP25-His6, Boston Biochem E-546) (Homo sapiens, UniProt Q9UHP3)         pIC50  7.30 to 9.00

Next:
Form field: reported pIC50 of Cc1ccc2c(N)c(C(=O)N[C@H]3COc4cc(N5CCO[C@H]6CNC[C@H]65)ccc4C3)sc2n1 6.70 to 7.30
